System: HT-29
protocol: NCI tumour cell line growth inhibition, 48 h
The source made the active and inactive calls. No stated cut-off is given here; in the data, active = GI50 up to about 1.1 µM and inactive = higher.
observed-property: GI50

CCOC(=O)/C(O)=C1\C(=O)N(C)C(=O)C1c1ccc(OC)c(OC)c1 (stereo not drawn) : > 100 µM (inactive)
COc1c(CC(C)=O)c2ccccc2n1C(C)=O : > 100 µM (inactive)
CN(C)Cc1cc(O)c(O)c(CN(C)C)c1 : 40.2 µM (inactive)
CCOP12(OCC)NC(=O)OC1(C(F)(F)F)c1ccccc1O2 (stereo not drawn) : > 100 µM (inactive)
C#Cc1cc(Br)c(OC(=O)C(C)(C)C)c(-c2cc(C#C)cc(Br)c2OC(=O)C(C)(C)C)c1 : 22.1 µM (inactive)

For CCOC(=O)/C=C(/C(=O)OCC)n1ccc(=O)n(Cc2cn(COCCOC(C)=O)nn2)c1=O , what is its reported GI50?
18.1 µM (inactive)

# get_value(readout='GI50', item= CN(C)c1ccc(/C=c2/sc3nc(=O)c(-c4ccccc4NC(=O)C(F)(F)F)nn3c2=O)cc1 )
> 100 µM (inactive)

What does the record list as GI50 for CC1=C(C(=O)Nc2ccc(Cl)c(C(=O)OC(C)C)c2)SCCO1 ?
25.7 µM (inactive)

# GI50 lookup, item CC(=O)OC[C@@]1(C)[C@@H]2[C@@H]3[C@@]4(CO[C@]3(C)C(=O)[C@@]3(O)C[C@H](C)[C@H](OC(C)=O)[C@@H]3[C@H]4OC(C)=O)[C@H](OC(=O)c3ccccc3)C[C@@H]21
> 100 µM (inactive)

Which measured GI50 value corresponds to C#CCSc1nc(N)c2ncn(C3OC(CO)C(O)C3O)c2n1 (stereo not drawn) ?
> 100 µM (inactive)

What value of GI50 has been reported for the following compound? CC1(C)N/C(=C\C=O)C(C)(C)N1O
> 100 µM (inactive)

Any idea what GI50 was measured for COc1ccc(OC)c2cc(Cc3ccc(N(C)C)cc3)c(=O)c(Cc3ccc(N(C)C)cc3)cc12 ?
> 100 µM (inactive)

Give its GI50 value. Item: CCOC(=O)C#Cc1ccc([N+](=O)[O-])cc1
1.53 µM (inactive)

* * *

Test system: MOLT-4
protocol: NCI tumour cell line growth inhibition, 48 h
The source made the active and inactive calls. Rule as the data show it: active = GI50 up to about 1.1 µM and inactive = higher.
The reader will find reported GI50 values listed item by item below.

Below, 4 molecules whose answers are already recorded.
CCN(CC)C(=C(C(Cl)=C(Cl)Cl)[N+](=O)[O-])N(CC)CC : 27.2 µM (inactive)
CSc1cc(Cl)c(C(=O)Nc2ccccc2)cc1S(=O)(=O)n1ccnc1O : > 100 µM (inactive)
CC1=NN(c2ccccc2)C(=O)/C1=C\c1ccc([N+](=O)[O-])cc1 : 21.5 µM (inactive)
CCOC(=O)C1=C(O)C(=O)c2c(OC)ccc(OC)c2C1=O : > 100 µM (inactive)

Please report the recorded GI50 for Cc1ccc(NC(=O)CC2C(=O)Nc3ccccc3S2(=O)=O)c(C)c1 (stereo not given) .
7.33 µM (inactive)

* * *

System: HCC 2998
protocol: NCI tumour cell line growth inhibition, 48 h
Calls of active or inactive are those of the source. No stated cut-off is given here; in the data, active = GI50 up to about 1.1 µM and inactive = higher.
observed-property: GI50

Answered cases to consult:
CC1=C(C(=O)OCCc2ccc([N+](=O)[O-])cc2)C(c2ccccc2C(F)(F)F)C(C(=O)OC(C)C)=C(C)N1 (stereo not drawn) : 4.92 µM (inactive)
Cc1ccc(NC(=O)CC2C(=O)Nc3ccccc3S2(=O)=O)c(C)c1 (stereo not drawn) : 13.4 µM (inactive)
CC(C)(C)N1C(=O)c2ccccc2C1(O)C(F)(F)F (stereo not drawn) : > 100 µM (inactive)
N=C(N)N/N=C(/c1ccccc1)c1ccc(O)cc1O : 16.9 µM (inactive)
CCCCCCCCCCN(CCCCCCCCCC)C(=O)COc1c2cc(C(C)(C)C)cc1Cc1cc(C(C)(C)C)cc(c1OCC(=O)N(CCCCCCCCCC)CCCCCCCCCC)Cc1cc(C(C)(C)C)cc(c1OCC(=O)N(CCCCCCCCCC)CCCCCCCCCC)Cc1cc(C(C)(C)C)cc(c1OCC(=O)N(CCCCCCCCCC)CCCCCCCCCC)C2 : 8.85 µM (inactive)
O=C(CC(=O)C1CCOC1=O)C(=O)Nc1ccc(Cl)cc1Cl (stereo not drawn) : > 100 µM (inactive)

Field request: GI50 | item: CN(C)C(CN)CC1=C(CC(CN)N(C)C)CCC1 (stereo not drawn)
> 100 µM (inactive)

Which GI50 reading was recorded for the compound Nc1cccc(-c2cc(O)c3cc4c(cc3n2)OCO4)c1 ?
1.83 µM (inactive)

* * *

Tested on: NCI-H23
protocol: NCI tumour cell line growth inhibition, 48 h
The source made the active and inactive calls. Cut-off read from the data, not from the text of the source: active = GI50 up to about 1.1 µM and inactive = higher.
observed-property: GI50

Use the examples below as a reference point.
Cc1oc2nc(N(C)C)n3c(C)nnc3c2c1C : > 100 µM (inactive)
COc1cc2c(cc1OC)C(Cc1c3ccccc3cc3ccccc13)N(C)CC2 (stereo not given) : 29 µM (inactive)
O=C1/C(=C/c2ccccc2[N+](=O)[O-])N=C(c2ccccc2)N1c1nc2ccccc2s1 : 17.4 µM (inactive)
COc1ccc(N2CCOCC2)cc1 : > 100 µM (inactive)
O=C1c2cc([N+](=O)[O-])ccc2NC2C(O)c3ccccc3N12 (stereo not given) : 24.3 µM (inactive)
CCOc1cc(NC(C)=O)ccc1C(=O)NN1C(=O)CSC1c1ccccc1 (stereo not given) : 66.7 µM (inactive)
Cc1cc(OP2(=O)NCc3ncccc3O2)ccc1Cl (stereo not given) : > 100 µM (inactive)
Cc1cc(C)c2c(SCc3ccc(Cl)cc3Cl)nc(N)nc2n1 : > 100 µM (inactive)
Cc1cc2c(c3c1c1ccccc1n3C)C(=O)c1ccccc1C2=O : 48.5 µM (inactive)
CC(=O)N1CCC2(c3ccccc3N(C(C)=O)C2c2ccc(O)cc2)C1C(=O)O (stereo not given) : > 100 µM (inactive)

Read the next record carefully.
State the recorded GI50 for this entry: O=C(N/N=C/c1ccc(Cl)cc1)c1cc(I)cc(I)c1O
> 100 µM (inactive)

* * *

System: COLO 205
protocol: NCI tumour cell line growth inhibition, 48 h
Calls of active or inactive are those of the source. Rule as the data show it: active = GI50 up to about 1.1 µM and inactive = higher.
Below: a set of entries, each annotated with reported GI50.

Some molecules with known GI50 results, for comparison:
COc1nc(NC2OC(COC(C)=O)C(OC(C)=O)C(OC(C)=O)C2OC(C)=O)c(/N=C(\C)C(C)=O)c(=O)n1C (stereo unspecified) : > 100 µM (inactive)
Cc1csc2nc(-c3ccc(Cl)c([N+](=O)[O-])c3)c(/C=N/NC(=N)N)n12 : 1.15 µM (inactive)
CSc1c(C)c(C)nn1-c1ccccc1 : > 100 µM (inactive)

Then there is this molecule:
Form field - read-out: GI50; system: COLO 205; submitted item: O=C(Nc1nccs1)c1cc(C2=CC=CC([N+](=O)[O-])C=C2)nc(S)n1 (stereo unspecified)
> 100 µM (inactive)

* * *

Listed below: GI50 values for each entry.
Tested on: UACC-257
protocol: NCI tumour cell line growth inhibition, 48 h
Activity calls are given as the source filed them. Cut-off read from the data, not from the text of the source: active = GI50 up to about 1.1 µM and inactive = higher.

N#CC12C(=O)NC(=O)C1(C#N)C1C=CC2CC1 (stereo not given) : > 100 µM (inactive)
CC1=NN(c2ccccc2Cl)C2(C1)C(Cl)C(=O)N2c1nc2ccccc2s1 (stereo not given) : > 100 µM (inactive)
O=C(Nc1ccc(Cl)c(Cl)c1)C(=O)C(C(=O)c1ccccc1-c1ccccc1)C1OC(=O)c2ccccc21 (stereo not given) : 18.9 µM (inactive)
CN(C)c1ccc(/C=N/NC(=S)Nc2ccccc2)cc1 : > 100 µM (inactive)
CCOc1cc(NC(C)=O)ccc1C(=O)NN1C(=O)CSC1c1ccccc1 (stereo not given) : 63.8 µM (inactive)

Look up GI50: C[N+](C)(C)/C=N\c1cccc2nsnc12
> 100 µM (inactive)

What does the record list as GI50 for CC(C)(C)N/N=N/c1cn(C2OC(CO)C(O)C2O)c(=O)[nH]c1=O (stereo not given) ?
> 100 µM (inactive)

* * *

Test system: Malme-3M
protocol: NCI tumour cell line growth inhibition, 48 h
Activity calls are given as the source filed them. No stated cut-off is given here; in the data, active = GI50 up to about 1.1 µM and inactive = higher.
observed-property: GI50

// known answers, use as guide
CC1=C2NCN(C)N=C2C(C#N)(C#N)C1(C#N)C#N : 20.4 µM (inactive)
Cc1ccccc1C(=N)c1ccccc1Cc1cccc2ccccc12 : 11.5 µM (inactive)
O=[N+]([O-])c1ccc2c(c1)Sc1ccccc1N2CCCCCl : > 10 µM (inactive)
Cc1c(-c2nc(N)nc(C3CC3)c2C)nc(N)nc1C1CC1 : > 100 µM (inactive)
CN(C)Cc1cc(O)c(O)c(CN(C)C)c1 : 31.3 µM (inactive)
CCN(CC)CCN1C(=O)C(=O)N(c2cccc3ccccc23)C1=O : > 10 µM (inactive)

Turning now to a further molecule:
Give the measured GI50 of CN1C(=O)NC(=O)/C(=C\Nc2ncccn2)C1=O .
> 100 µM (inactive)
